Cited source for all entries: ChEMBL document CHEMBL3885861

# Organism: Rattus norvegicus
# method description: Open TG-GATES - Regimen: Daily Repeat
# Assay type: toxicity, organism-based, Sprague-Dawley
# Design: regimen Daily Repeat, gender Male, age 6 weeks
# condition: in vivo, po, 0 mg/kg, […], tissue Plasma, route gavage, dose level Control, time 7 day
Here, each record is paired with measured AST data.
Express it in IU/L; write the number only.

Take a look at these entries with their results.
- molecule: "COc1ccc2[nH]c([S+]([O-])Cc3ncc(C)c(OC)c3C)nc2c1 (stereo not given)"
  AST, IU/L: 73.8
- molecule: "COC1=CC(=O)C[C@@H](C)[C@]12Oc1c(Cl)c(OC)cc(OC)c1C2=O"
  AST, IU/L: 81
- molecule: "NC(N)=Nc1nc(CSCCC(N)=NS(N)(=O)=O)cs1"
  AST, IU/L: 71.4
- molecule: "O=C(CCCN1CCC(O)(c2ccc(Cl)cc2)CC1)c1ccc(F)cc1"
  AST, IU/L: 59.4

Now look at this entry.
// AST lookup, key: CCCNC(=O)NS(=O)(=O)c1ccc(Cl)cc1 [CHLORPROPAMIDE]
69.4

* * *

Here, each record is paired with measured Ht data.
# Species: Rattus norvegicus
# method description: Open TG-GATES - Regimen: Single
# Type: toxicity, organism-based, Sprague-Dawley
# Set-up: regimen Single, gender Male, age 6 weeks
# condition: in vivo, po, 10 mg/kg, 9 h, tissue Blood, route gavage, dose level Low

Take a look at these entries with their results.
- compound: "CN(C)CCN(Cc1cccs1)c1ccccn1"
  Ht: "38.8%"
- compound: "CN(C)CCCN1c2ccccc2CCc2ccc(Cl)cc21"
  Ht: "41.8%"
- compound: "CN(C)CCCN1c2ccccc2CCc2ccccc21"
  Ht: "42.3%"
- compound: "CC1=C(/C=C/C(C)=C/C=C/C(C)=C/CO)C(C)(C)CCC1"
  Ht: "38.3%"

Now look at this entry.
// Ht lookup, key: CC(C)OC(=O)C(C)(C)Oc1ccc(C(=O)c2ccc(Cl)cc2)cc1 [FENOFIBRATE]
39.6%

* * *

# Species: Rattus norvegicus
# method description: Open TG-GATES - Regimen: Daily Repeat
# Type: toxicity, organism-based, Sprague-Dawley
# Parameters: regimen Daily Repeat, gender Male, age 6 weeks
# condition: in vivo, po, 0 mg/kg, […], tissue Plasma, route gavage, dose level Control, time 14 day
readout kind: BUN (mg/dL)
Express it in mg/dL; write the number only.

Take a look at these entries with their results.
- compound: "COC1=CC(=O)C[C@@H](C)[C@]12Oc1c(Cl)c(OC)cc(OC)c1C2=O"
  BUN / mg/dL: 15
- compound: "COc1ccc2[nH]c([S+]([O-])Cc3ncc(C)c(OC)c3C)nc2c1 (stereo not given)"
  BUN / mg/dL: 17.2
- compound: "CC1=C(/C=C/C(C)=C/C=C/C(C)=C/CO)C(C)(C)CCC1"
  BUN / mg/dL: 17.4
- compound: "NNC(=O)c1ccncc1"
  BUN / mg/dL: 19.2

// BUN lookup, key: CN(C)CCN(Cc1cccs1)c1ccccn1
19

* * *

# Organism: Rattus norvegicus
# method description: Open TG-GATES - Regimen: Single
# Format: toxicity, organism-based, Sprague-Dawley
# Set-up: regimen Single, gender Male, age 6 weeks
# condition: in vivo, po, 300 mg/kg, 3 h, tissue Plasma, route gavage, dose level Middle
readout kind: TG
Quote the value and follow it with the unit of measurement.

Take a look at these entries with their results.
- compound: "COc1ccc2[nH]c([S+]([O-])Cc3ncc(C)c(OC)c3C)nc2c1 (centres undefined) [OMEPRAZOLE]"
  TG: "70.2 mg/dL"
- compound: "NC(N)=Nc1nc(CSCCC(N)=NS(N)(=O)=O)cs1 [FAMOTIDINE]"
  TG: "69.4 mg/dL"
- compound: "CCOC(=O)CCC(=O)O[C@H]1[C@H](O[C@@H]2[C@@H](C)[C@H](O[C@H]3C[C@@](C)(OC)[C@@H](O)[C@H](C)O3)[C@@H](C)C(=O)O[C@H](CC)[C@@](C)(O)[C@H](O)[C@@H](C)C(=O)[C@H](C)C[C@@]2(C)O)O[C@H](C)C[C@@H]1N(C)C [ERYTHROMYCIN ETHYLSUCCINATE]"
  TG: "66.4 mg/dL"

Now look at this entry.
// TG lookup, key: COC1=CC(=O)C[C@@H](C)[C@]12Oc1c(Cl)c(OC)cc(OC)c1C2=O [GRISEOFULVIN]
134.8 mg/dL
